tgt: αER (Homo sapiens, UniProt P03372)
Construct: expressed in transfected cells; host or cells: 293 cells (Human Embryonic Kidney, ATCC CRL-1573)
experiment.summary: Cell-based assay for ER transcriptional activity (ERE β-gal reporter), αER-transfected 293 cells
stated.conditions: 293 cells transfected with αER and ERE reporter; maximal response; unit assumed
Protocol: ERs are ligand-dependent transcription factors that bind the promoter regions of genes at a consensus DNA sequence called the estrogen responsive element (ERE). The ER agonist or antagonist activity of a drug was determined by measuring the amount of reporter enzyme activity expressed from a plasmid under the control of an estrogen-responsive element when cells transiently transfected with ER and the reporter plasmid were exposed to drug. […]
readout.label: ERE α-ER Max (%)

A. CCC1c2ccc(O)cc2CCN1c1ccc(O)cc1 (centres unmarked) [Example 15]
B. Cc1ccc(O)cc1N1CCc2cc(O)ccc2C1C (centres unmarked) [Example 18]
Lab note: check whether A or B has the lower measured ERE α-ER Max. When you have decided, please share the label of that item.
A
(A: 37%, B: 85%)

----------
tgt: human recombinant ERβ (Homo sapiens)
Sequence (Q92731 whole entry): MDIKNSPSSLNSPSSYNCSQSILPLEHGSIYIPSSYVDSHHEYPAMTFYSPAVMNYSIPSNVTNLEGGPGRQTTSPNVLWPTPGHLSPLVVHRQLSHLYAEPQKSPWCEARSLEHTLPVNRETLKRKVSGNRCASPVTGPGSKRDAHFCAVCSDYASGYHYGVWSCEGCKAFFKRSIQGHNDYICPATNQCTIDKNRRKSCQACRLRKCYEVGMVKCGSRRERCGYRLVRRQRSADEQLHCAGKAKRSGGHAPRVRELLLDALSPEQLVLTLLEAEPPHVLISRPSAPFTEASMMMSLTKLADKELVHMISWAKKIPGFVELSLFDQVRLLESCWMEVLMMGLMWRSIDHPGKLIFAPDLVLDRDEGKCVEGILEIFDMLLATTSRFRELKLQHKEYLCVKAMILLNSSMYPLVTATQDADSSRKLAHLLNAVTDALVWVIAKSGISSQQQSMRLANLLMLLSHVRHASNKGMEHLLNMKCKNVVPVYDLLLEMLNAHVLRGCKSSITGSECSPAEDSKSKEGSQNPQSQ
experiment.summary: Fluorescence polarization estrogen receptor (ERFP) binding assay, ERβ
stated.conditions: competition with Fluormone ES2; IC50 converted to Ki by Kenakin formula; read-out: FP β-ER Ki
Text: A homogeneous mix-and-measure estrogen receptor (ER) binding assay which utilizes fluorescence polarization (FP) technology is used to identify compounds with affinity for the estrogen receptor. […] Polarized fluorescence intensity values are collected and subsequently converted electronically to millipolarization (mp) values. […]
pKi: −log10 of the molar value.
readout.label: pKi

P. Oc1ccc2c(c1)CCN(c1ccc(Cl)cc1Cl)C2 [Example 13]
Q. COc1ccc([N+](=O)[O-])cc1N1CCc2cc(O)ccc2C1 [Example 4]
// max by pKi over [ P , Q ] Write the label of whichever entry you select.
P
(P: 7.49, Q: 6.34)

1. O=C(c1ccc(O)cc1)N1CCc2cc(O)ccc2C1 [Example 23]
2. CCc1ccc(C2c3ccc(O)cc3CCN2c2ccc(O)cc2)cc1 (stereo not shown) [Example 11]
Given 1 and given 2 , which shows the smaller recorded pKi? Your choice should be expressed through its label.
1
(1: 6.64, 2: 8.05)

----------
tgt: human recombinant ERα (Homo sapiens, UniProt P03372)
experiment.summary: Fluorescence polarization estrogen receptor (ERFP) binding assay, ERα
stated.conditions: competition with Fluormone ES2; IC50 converted to Ki by Kenakin formula; read-out: FP α-ER Ki
readout.label: Ki (nM)

{"compound": "CCc1ccc(C2c3ccc(O)cc3CCN2c2ccc(O)cc2)cc1 (stereo not shown)", "Ki (nM)": 10}
{"compound": "Cc1ccc(O)cc1N1CCc2cc(O)ccc2C1C (stereo not shown)", "Ki (nM)": 9}
{"compound": "Cc1ccc(N2CCc3cc(O)ccc3C2c2cccs2)cc1O (stereo not shown)", "Ki (nM)": 12}

I. Oc1ccc(N2CCc3cc(O)ccc3C2c2ccccc2)cc1 (stereo not shown)
II. Oc1ccc(N2CCc3cc(O)ccc3C2)c(Cl)c1
III. CCC1c2ccc(O)cc2CCN1c1ccc(O)c(Cl)c1 (stereo not shown)
IV. Cc1ccc(N2CCc3cc(O)ccc3C2c2ccoc2)cc1O (stereo not shown)
hey, can you rank those compounds up there by Ki? biggest number first please Give the order by naming the labels one after another as requested.
III, II, IV, I

----------
tgt: βER (Homo sapiens, UniProt Q92731)
Construct: expressed in transfected cells; host or cells: 293 cells (Human Embryonic Kidney, ATCC CRL-1573)
Sequence (Q92731 54-530 limits assumed): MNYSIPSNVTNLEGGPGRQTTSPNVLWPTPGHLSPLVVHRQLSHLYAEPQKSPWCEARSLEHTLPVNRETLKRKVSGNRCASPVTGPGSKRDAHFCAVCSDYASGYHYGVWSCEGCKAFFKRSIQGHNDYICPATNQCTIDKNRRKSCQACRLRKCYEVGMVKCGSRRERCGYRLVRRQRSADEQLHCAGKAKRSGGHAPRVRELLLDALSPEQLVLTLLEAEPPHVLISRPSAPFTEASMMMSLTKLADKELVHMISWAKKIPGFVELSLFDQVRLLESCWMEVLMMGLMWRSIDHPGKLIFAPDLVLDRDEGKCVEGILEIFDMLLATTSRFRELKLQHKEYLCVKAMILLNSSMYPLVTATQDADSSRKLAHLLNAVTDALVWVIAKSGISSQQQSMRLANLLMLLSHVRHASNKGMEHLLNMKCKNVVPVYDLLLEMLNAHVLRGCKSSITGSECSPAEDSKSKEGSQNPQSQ
experiment.summary: Cell-based assay for ER transcriptional activity (ERE β-gal reporter), βER-transfected 293 cells
stated.conditions: ratio α-ER EC50 / β-ER EC50
readout.label: ERE Selectivity

Recorded results for 2 compounds are shown here.
{"compound": "CCC1c2ccc(O)cc2CCN1c1ccc(O)c(Cl)c1 (centres unmarked)", "tgt": "βER (Homo sapiens, UniProt Q92731)", "quantitative.result": 0.1}
{"compound": "Oc1ccc(N2CCc3cc(O)ccc3C2c2ccccc2)cc1 (centres unmarked)", "tgt": "βER (Homo sapiens, UniProt Q92731)", "quantitative.result": 0.1}

1. CCC1c2ccc(O)cc2CCN1c1ccc(O)cc1 (centres unmarked)
2. Cc1ccc(N2CCc3cc(O)ccc3C2c2ccoc2)cc1O (centres unmarked)
3. CC1c2ccc(O)cc2CCN1c1ccc(O)cc1 (centres unmarked)
Order the records, beginning with the lowest ERE Selectivity and ending with the highest. To answer, arrange all of the labels according to the requested order.
2, 3, 1

----------
tgt: UniProtKB P03372
Sequence (P03372 1-595): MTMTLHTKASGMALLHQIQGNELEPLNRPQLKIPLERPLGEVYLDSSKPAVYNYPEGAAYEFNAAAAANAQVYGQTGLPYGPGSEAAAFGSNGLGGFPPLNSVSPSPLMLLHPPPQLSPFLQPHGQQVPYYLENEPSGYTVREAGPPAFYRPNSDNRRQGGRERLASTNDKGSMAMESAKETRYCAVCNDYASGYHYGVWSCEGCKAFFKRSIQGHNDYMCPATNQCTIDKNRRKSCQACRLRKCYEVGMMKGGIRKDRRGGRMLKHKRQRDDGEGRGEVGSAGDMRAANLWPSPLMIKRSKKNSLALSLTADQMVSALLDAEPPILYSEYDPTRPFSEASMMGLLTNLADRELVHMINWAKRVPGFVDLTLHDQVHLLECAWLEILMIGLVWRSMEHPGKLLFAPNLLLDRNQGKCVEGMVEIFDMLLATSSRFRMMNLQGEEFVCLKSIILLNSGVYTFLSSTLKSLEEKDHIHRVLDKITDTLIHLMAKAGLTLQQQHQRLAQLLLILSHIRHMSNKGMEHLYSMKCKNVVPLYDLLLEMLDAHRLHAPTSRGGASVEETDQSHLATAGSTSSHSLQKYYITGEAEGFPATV
experiment.summary: Cell-based assay for ER transcriptional activity (ERE β-gal reporter), αER-transfected 293 cells
stated.conditions: 293 cells transfected with αER and ERE reporter; read-out: ERE α-ER EC50
readout.label: EC50 (nM)

{"compound": "Cc1ccc(N2CCc3cc(O)ccc3C2c2ccccc2)cc1O (centres unmarked)", "EC50, nM": 1.2}
{"compound": "CCC1c2cc(O)ccc2CN1c1ccc(O)cc1 (centres unmarked)", "EC50, nM": 73}
{"compound": "Oc1ccc(N2Cc3ccc(O)cc3C2)cc1 [Example 25, 5-Hydroxy-2-(4-hydroxyphenyl)isoindoline]", "EC50, nM": 192}

a. CC1c2ccc(O)cc2CCN1c1cccc(O)c1 (centres unmarked)
b. CCC1c2ccc(O)cc2CCN1c1ccc(O)cc1 (centres unmarked)
Returns the identifier with the smallest measured EC50 among a and b . API: response body contains the label of the selected item.
a
(a: 2.5 nM, b: 1000 nM)

----------
tgt: human recombinant ERβ (Homo sapiens)
experiment.summary: Fluorescence polarization estrogen receptor (ERFP) binding assay, ERβ
stated.conditions: competition with Fluormone ES2; IC50 converted to Ki by Kenakin formula; read-out: FP β-ER Ki
pKi: −log10 of the molar value.
readout.label: pKi

{"compound": "Cc1ccc(O)cc1N1CCc2cc(O)ccc2C1C (stereo not shown)", "tgt": "human recombinant ERβ (Homo sapiens)", "quantitative.result": 8.35}

A. CC1c2ccc(O)cc2CCN1c1cccc(O)c1 (stereo not shown)
B. Oc1ccc(N2CCc3cc(O)ccc3C2c2ccccc2)cc1 (stereo not shown)
C. Cc1ccc(N2CCc3cc(O)ccc3C2c2cccs2)cc1O (stereo not shown)
# desc sort on pKi across 3 compounds // rank by listing labels in the order requested
C, B, A
(C: 8.46, B: 8.00, A: 7.47)

I. Cc1ccc(N2CCc3cc(O)ccc3C2c2ccoc2)cc1O (stereo not shown)
II. Oc1ccc(N2CCc3cc(O)ccc3C2)cc1
API: POST /compare with I and II ; response names the item with higher pKi. Give the label under which the chosen entry appears.
I
(I: 8.42, II: 6.43)

----------
tgt: βER (Homo sapiens)
Construct: expressed in transfected cells; host or cells: 293 cells (Human Embryonic Kidney, ATCC CRL-1573)
experiment.summary: Cell-based assay for ER transcriptional activity (ERE β-gal reporter), βER-transfected 293 cells
stated.conditions: ratio α-ER EC50 / β-ER EC50
readout.label: ERE Selectivity

The following compounds have reported results that may help.
{"compound": "Cc1cc(O)ccc1N1CCc2cc(O)ccc2C1 [Example 3]", "quantitative.result": 0.8}
{"compound": "Oc1ccc(N2Cc3ccc(O)cc3C2)cc1 [Example 25, 5-Hydroxy-2-(4-hydroxyphenyl)isoindoline]", "quantitative.result": 1.2}
{"compound": "Cc1ccc(N2CCc3cc(O)ccc3C2c2ccccc2)cc1O (stereo not drawn) [Example 20]", "quantitative.result": 3.3}

I. CC1c2ccc(O)cc2CCN1c1cccc(O)c1 (stereo not drawn) [Example 17]
II. CCC1c2cc(O)ccc2CN1c1ccc(O)cc1 (stereo not drawn) [Example 26]
III. Cc1ccc(O)cc1N1CCc2cc(O)ccc2C1C (stereo not drawn) [Example 18]
Rank descending by ERE Selectivity. Write out the labels following the order that was asked for.
III, II, I
(III: 4.0, II: 0.9, I: 0.1)
